Origin of measurements: PubChem BioAssay AID1159580

Experiment: chemical genetic growth profiling, strain panel (AID 1159580);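 also: tested at 20 µM; growth read once vehicle control cultures reached saturation at 30 °C; 1 = growth at the plate median or of vehicle wells; lower values mean less growth of the strain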
Details: S. cerevisiae deletion strains, growth OD, locus YPL055C, strain LGE1
Out of some 5,500 compounds screened, about 2,000 (36%) were called active. Inconclusive results (about 18%) are left out. Rule as the data show it: active = normalized growth mostly below about 0.91 (no sharp cut-off); inconclusive = no clear call, values can overlap the other calls; inactive = mostly above about 0.92. The list shows a part of the results.
Permitted responses: 1 (yes) = active, 0 (no) = inactive

What was the test verdict on CCCCC(CC)CN1CN(CC(CC)CCCC)CC(C)(N)C1 (configuration not stated) ? 1 (yes)

What was the test verdict on COc1cccc(C2C3=C(CC(C)(C)CC3=O)OC3=C2C(=O)CC(C)(C)C3)c1O ? 0 (no)

What was the test verdict on O=[N+]([O-])c1ccc2nsnc2c1 ? 1 (yes)

What was the test verdict on C[n+]1cccc(C(=O)[O-])c1 ? 0 (no)

What was the test verdict on CC(N)[C@H](O)c1ccc(O)c(O)c1 (some centres not stated) ? 0 (no)

What was the test verdict on CC[N+](CC)(CC)CC(=O)Nc1c(C)cccc1C ? 0 (no)

What was the test verdict on C1CCN2C[C@@H]3C[C@H](CN4CCCC[C@@H]34)[C@H]2C1 ? 0 (no)

What was the test verdict on NC(=S)N/N=C\c1cc(F)cc(F)c1 ? 0 (no)

What was the test verdict on CC(=O)Nc1ccc(S(=O)(=O)Nc2ccc([N+](=O)[O-])cc2)cc1 ? 0 (no)

What was the test verdict on CSc1ccc(/C=C/[N+](=O)[O-])cc1 ? 1 (yes)

What was the test verdict on C1CNCCN1 ? 0 (no)

What was the test verdict on C[C@H](Cc1ccc(O)c(O)c1)[C@@H](C)Cc1ccc(O)c(O)c1 ? 1 (yes)

What was the test verdict on O=C(O)C1=CCNCC1 ? 0 (no)

What was the test verdict on CCCCCCNC(=O)NCCCCCC ? 0 (no)

What was the test verdict on Fc1cc2n[nH]nc2cc1Cl ? 0 (no)

What was the test verdict on COC(=O)c1cc([N+](=O)[O-])ccc1NC(C)=O ? 0 (no)

What was the test verdict on COc1ccccc1OCCNCC(O)COc1cccc2[nH]c3ccccc3c12 (configuration not stated) ? 0 (no)

What was the test verdict on CCSc1nnc(N)s1 ? 0 (no)

What was the test verdict on COc1cc(OC)c2c(=O)c(-c3ccccc3)c(C)oc2c1OC ? 0 (no)

What was the test verdict on CCCCCCCCCCCCCCCC(=O)NCCO ? 0 (no)

What was the test verdict on O=[N+]([O-])/C=C/c1ccsc1 ? 1 (yes)

What was the test verdict on Cc1[nH]ncc1-c1ccccc1 ? 0 (no)

What was the test verdict on CC1C(c2ccccc2)OCCN1CN1C(=O)c2ccccc2C1=O (configuration not stated) ? 0 (no)

What was the test verdict on CC(C)(C)NS(=O)(=O)NC(C)(C)C ? 0 (no)

What was the test verdict on O=[N+]([O-])c1ccc(CSc2ncnc3c2ncn3[C@@H]2O[C@H](CO)[C@H](O)C2O)cc1 (some centres not stated) ? 0 (no)

What was the test verdict on Nc1nc2c(ncn2C2C[C@H](O)[C@@H](CO)O2)c(=O)[nH]1 (some centres not stated) ? 0 (no)

What was the test verdict on CN(C)C=Nc1nnc(Sc2ncccc2[N+](=O)[O-])s1 ? 0 (no)

---

Assay: chemical genetic growth profiling, strain panel (AID 1159580);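 also: tested at 20 µM; growth read once vehicle control cultures reached saturation at 30 °C; 1 = growth at the plate median or of vehicle wells; lower values mean less growth of the strain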
Conditions: S. cerevisiae deletion strains, growth OD, locus YBR279W, strain paf1, active compounds read low
Hit rate of the full screen: of about 5,500 compounds, about 2,000 (36%) were called active. Another 18% or so got no clear call; they are omitted. This is one part of the list.
Exercise: state measured normalized growth for each of the compounds provided.
# respond with the number and nothing more

Give the reported normalized growth for this compound. CC(=O)NCCCS(=O)(=O)O 1.02

Give the reported normalized growth for this compound. CCN(CC)CCNC(=O)c1cc(S(C)(=O)=O)ccc1OC 0.969

Give the reported normalized growth for this compound. CC(=O)Nc1ccc(S(=O)(=O)c2ccc(NC(C)=O)cc2)cc1 1.01

Give the reported normalized growth for this compound. C=C(C)C1CC=C(CO)CC1 (configuration not stated) 0.983

Give the reported normalized growth for this compound. CC(=O)NCCCCCC(=O)O 0.998

Give the reported normalized growth for this compound. Nc1ncn([C@@H]2O[C@H](CO)[C@@H](O)[C@H]2O)c(=O)n1 0.995

Give the reported normalized growth for this compound. C=C(C)[C@H]1CC=C(C(=O)O)CC1 0.972

Give the reported normalized growth for this compound. O=C(O)C1=CCNCC1 1.01

Give the reported normalized growth for this compound. N[C@@H](Cc1ccc(O)c(O)c1)C(=O)O 1

Give the reported normalized growth for this compound. CCCC1O[C@@H]2CC3C4CCC5=CC(=O)C=CC5(C)C4[C@@H](O)CC3(C)[C@]2(C(=O)CO)O1 (some centres not stated) 1.01

Give the reported normalized growth for this compound. COc1cc(OC)c2c(=O)c(-c3ccccc3)c(C)oc2c1OC 0.986

Give the reported normalized growth for this compound. O=C(NC(=O)c1c(F)cccc1F)Nc1ccc(Cl)cc1 1.01

---

Assay: chemical genetic growth profiling, strain panel (AID 1159580);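 also: tested at 20 µM; growth read once vehicle control cultures reached saturation at 30 °C; 1 = growth at the plate median or of vehicle wells; lower values mean less growth of the strain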
Settings: S. cerevisiae deletion strains, growth OD, locus YCL029C, strain bik1, active compounds read low
Hit rate of the full screen: of about 5,500 compounds, about 2,000 (36%) were called active. Not shown: some 18% with an inconclusive outcome. Some of the results follow.
metric name: normalized growth
# respond with the number and nothing more

Give the reported normalized growth for this compound. C=CC(C1=CC(=O)C=CC1=O)c1ccccc1 (stereo unspecified) 1

Give the reported normalized growth for this compound. CCN(CC)CCOc1ccc(/C(=C(\Cl)c2ccccc2)c2ccccc2)cc1 0.0627

Give the reported normalized growth for this compound. Nc1ncnc2c1ncn2C1C[C@H](O)[C@@H](CO)O1 (stereo partly specified) 0.998

Give the reported normalized growth for this compound. CN1C(CC(=O)c2ccccc2)CCCC1CC(O)c1ccccc1 (stereo unspecified) 0.968

Give the reported normalized growth for this compound. C=CC(C1=CC(=O)C(OC)=CC1=O)c1ccccc1 (stereo unspecified) 0.948

Give the reported normalized growth for this compound. CC1(C)C(O)CC(O)C2(C)C1CC(O)C1(C)C2CCC2(C)C(c3ccoc3)CC3OC321 (stereo unspecified) 1

Give the reported normalized growth for this compound. CO[C@H]1/C=C/O[C@@]2(C)Oc3c(C)c(O)c4c(O)c(c(/C=N/N5CCN(C)CC5)c(O)c4c3C2=O)NC(=O)/C(C)=C\C=C\C(C)[C@H](O)[C@@H](C)[C@@H](O)[C@@H](C)[C@@H](OC(C)=O)[C@@H]1C (stereo partly specified) 1.02

Give the reported normalized growth for this compound. CCN(CC)CCOc1ccc2c(c1)C(=O)c1cc(OCCN(CC)CC)ccc1-2 0.975

Give the reported normalized growth for this compound. C=C[C@@H](C1=CC(=O)C(OC)=C(OC)C1=O)c1ccccc1 0.968

Give the reported normalized growth for this compound. CCN(CC)CCNC(=O)c1cc(S(C)(=O)=O)ccc1OC 1.01

Give the reported normalized growth for this compound. C=C(C)[C@H]1CC=C(C(=O)O)CC1 0.938

Give the reported normalized growth for this compound. COc1cc(C(=O)NCc2ccc(OCCN(C)C)cc2)cc(OC)c1OC 0.977

Give the reported normalized growth for this compound. O=C(O)c1ccccc1Nc1cccc(C(F)(F)F)c1 0.999

Give the reported normalized growth for this compound. COc1ccc(C(Cl)=C(c2ccc(OC)cc2)c2ccc(OC)cc2)cc1 1.01

Give the reported normalized growth for this compound. Nc1ncnc2c1ncn2[C@@H]1O[C@H](CO)[C@@H](O)[C@H]1O 0.972

Give the reported normalized growth for this compound. O=C(CCCCCCCCCCCCC1CCCC1)Nc1ccc(S(=O)(=O)c2ccc(NC(=O)CCCCCCCCCCCCC3CCCC3)cc2)cc1 0.992

Give the reported normalized growth for this compound. CCOP(=S)(OCC)SCn1c(=O)oc2cc(Cl)ccc21 0.985

Give the reported normalized growth for this compound. C=CC(C1=CC(=O)C(OC)=CC1=O)c1ccc(OC)cc1 (stereo unspecified) 0.917

Give the reported normalized growth for this compound. C=CC(C1=CC(=O)C(OC)=CC1=O)c1ccc(O)cc1 (stereo unspecified) 0.987

Give the reported normalized growth for this compound. O=c1[nH]c(=O)n(C2C[C@@H](O)[C@@H](CO)O2)cc1F (stereo partly specified) 1.01

Give the reported normalized growth for this compound. CC/C(=C(\c1ccccc1)c1ccc(OCCN(C)C)cc1)c1ccccc1 0.0615

---

Assay: chemical genetic growth profiling, strain panel (AID 1159580);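 also: tested at 20 µM; growth read once vehicle control cultures reached saturation at 30 °C; 1 = growth at the plate median or of vehicle wells; lower values mean less growth of the strain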
Details: S. cerevisiae deletion strains, growth OD, locus YDL134C, strain PPH21
The whole screen tested about 5,500 compounds, of which about 2,000 (36%) were called active. Another 18% or so got no clear call; they are omitted. Rule as the data show it: active = normalized growth mostly below about 0.91 (no sharp cut-off); inconclusive = no clear call, values can overlap the other calls; inactive = mostly above about 0.92. This is one part of the list.
Permitted responses: 1 (active), -1 (inactive)

What was the test verdict on O=[N+]([O-])c1ccc(O)c([N+](=O)[O-])c1 ? 1

What was the test verdict on COc1ccc(OC)c(S(=O)(=O)N2CCc3cc(OC)c(OC)cc3C2C)c1 (centres undefined) ? -1

What was the test verdict on O=C(CCCCCCCCCCCCC1CCCC1)Nc1ccc(S(=O)(=O)c2ccc(NC(=O)CCCCCCCCCCCCC3CCCC3)cc2)cc1 ? -1

What was the test verdict on O=C(COC(=O)c1ccccc1Nc1cccc(F)c1)c1ccccc1 ? -1

What was the test verdict on CCN(CC)CCNC(=O)c1cc(S(C)(=O)=O)ccc1OC ? -1

What was the test verdict on CCCCC(CC)CN1CN(CC(CC)CCCC)CC(C)(N)C1 (centres undefined) ? 1

What was the test verdict on NCC(CC(=O)O)c1ccc(Cl)s1 (centres undefined) ? -1

What was the test verdict on Cc1ccsc1/C=C/C1=NCCCN1C ? -1

What was the test verdict on c1ccc2c(c1)cc1ccc3cccc4ccc2c1c34 ? -1

What was the test verdict on Oc1c(Cl)cc(Cl)c2cccnc12 ? 1

What was the test verdict on NCCNC(=O)c1ccc(Cl)cc1 ? -1

What was the test verdict on N[C@@H](Cc1ccc(O)c(O)c1)C(=O)O ? -1

What was the test verdict on NC(=S)N/N=C\c1ccc(F)c(Cl)c1 ? -1

What was the test verdict on CN[C@H](CC(=O)O)C(=O)O ? -1

What was the test verdict on OC[C@@H](O)[C@@H](O[C@@H]1O[C@H](CO)[C@@H](O)[C@H](O)[C@H]1O)[C@H](O)[C@@H](O)CO ? -1

What was the test verdict on Nc1nc2ncc(C(=O)O)nc2c(=O)[nH]1 ? -1

What was the test verdict on C=C[C@](C)(O)CCC=C(C)C ? -1

What was the test verdict on CCCCC1=NC2(CCCC2)C(=O)N1Cc1ccc(-c2ccccc2-c2nn[nH]n2)cc1 ? -1

What was the test verdict on NC(=NS(=O)(=O)c1cc(C(F)(F)F)cc(C(F)(F)F)c1)c1cccs1 ? -1

What was the test verdict on Nc1ccccc1SCC(=O)Nc1c(F)cccc1F ? -1

What was the test verdict on C#CCOc1c(Cl)cccc1Cl ? -1

What was the test verdict on O=C(O[C@@H]1Cc2c(O)cc(O)cc2O[C@@H]1c1cc(O)c(O)c(O)c1-c1c([C@H]2Oc3cc(O)cc(O)c3C[C@H]2O)cc(O)c(O)c1O)c1cc(O)c(O)c(O)c1 ? 1

What was the test verdict on Oc1c(Br)cc(Br)c2cccnc12 ? 1

What was the test verdict on Cc1ccc2cc3c(ccc4ccccc43)c3c2c1CC3 ? -1
